- target-entity: PfCSP full length (Plasmodium falciparum (isolate NF54), UniProt P19597)
- Sequence (P19597 20-375): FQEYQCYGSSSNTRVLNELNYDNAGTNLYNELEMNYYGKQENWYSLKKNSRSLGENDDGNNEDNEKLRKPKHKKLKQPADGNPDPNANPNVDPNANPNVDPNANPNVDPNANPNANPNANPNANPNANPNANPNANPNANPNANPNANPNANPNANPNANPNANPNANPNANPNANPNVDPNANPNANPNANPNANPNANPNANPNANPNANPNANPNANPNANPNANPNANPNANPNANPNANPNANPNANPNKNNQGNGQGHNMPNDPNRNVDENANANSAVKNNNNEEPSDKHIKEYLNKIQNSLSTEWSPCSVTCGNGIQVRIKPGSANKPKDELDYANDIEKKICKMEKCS
- assay-text: ELISA AUC
Reported binding score values are given for each entry in this list.

// worked examples, binding score included
CL-460406 (antibody, V domains shown, peptides N-terminally acetylated and C-terminally amidated) VH: QIQLVESGGGVVQPGRSLRLSCAASGFTFSNSGMHWIRQAPGKGLEWVTIIWYDGSNKYYADSVKGRFTISRDNSKNTLYLQMNSLRAEDTAIYYCARAYSSSSDDYYGMDVWGQGTTVTVSS VL: DIQMTQSPSTLSASVGDRVTITCRASQSISSWLAWYQQKPGKAPKLLIYKASSLESGVPSRFSGSGSGTDFTLTISSLQPDDFATYYCQQFYNYWTFGQGTKVEIT: 2.3
CL-510092 (antibody, V domains shown, peptides N-terminally acetylated and C-terminally amidated) VH: QVQLVESGGGVVQPGTSLRLSCAASGFTFSNFGMYWVRQAPGKGLEWVALIWYDGSNKFYEDSVKGRFTISRDNSKNTLYLQMNSLRAEDTAVYYCAKDGGYSGPGKYGFFRHWGQGSLVTVSS VL: DIQLTQSPSTLSASVGDRVTITCRASQSISNWLAWYQQKPGKAPKLLIYKASSLESGVPSRFSGNGSGTEFTLTISSLQPDDFATYYCHQYNFYWTFGQGTKVEIK: 2.38
CL-508731 (antibody, V domains shown, peptides N-terminally acetylated and C-terminally amidated) VH: QVQLVESGGGVVQPGRSLRLSCVASGFTFSNNGMHWVRQAPGKGLEWVAIIWHDGSNKFYAESVRGRFTISRDNSNNTLYLQMNSLRAEDTAVYYCARDRMFGSGSWNYFDPWGQGTLVTVSS VL: EIVLTQSPATLSLSPGERATLSCRASQSISTYLAWYQQKPGQAPRLLIYDASNRATGIPARFSGSGSGTDFTLTISSLEPEDFAVYYCQQRSYWWTFGQGTKVEIK: 2.31
CL-512374 (antibody, V domains shown, peptides N-terminally acetylated and C-terminally amidated) VH: QVQLVESGGGVVQPGRSLRLSCAASGFTFSSYGMHWVRQAPGKGLEWVAVIWYDGSNKYYADSVKGRFTISRDNSKNTLYLQMNSLRAEDTAVYYCARDGGGTTRSFDLWGRGTLVTVSS VL: QSVLTQPPSVSGAPGQRVTISCTGSSSNIGAGYDVHWYQQLPGTAPKLLIYGNSNRPSGVPDRFSGSKSGTSASLAITGLQAEDEADYYCQSYDSSLSGSMFGGGTKLTVL: 1.17

Ask: Determine its reported binding score: CL-514716 (antibody, V domains shown, peptides N-terminally acetylated and C-terminally amidated) VH: QIQLVESGGGVVQPGRSLRLSCAASGFTFSTYGMHWVRQAPGKGLEWVAVIWYDGSNKYYADSVQGRFTISRDNSKNTLYLQMNSLRAEDTAIYYCTTVGPIPFDYWGQGTLVTVSS VL: DIVMTQTPLSSPVILGQPASISCRSSQSLVHSSGNTYLSWLQQRPGQPPRLLIYKTFKRLSGVPDRFSGSGAGTDFTLKISRVEAEDVGVYYCLQSTQFPLTFGGGTKVEIK
Result: 1.75
